Numbers sourced from patent US12589169B2.

# Measurement Description: magnetic relaxation rates (MRI contrast effect)
# Type: physicochemical
# Condition Details: magnetic relaxation rate; field strength not stated for Table 1
Record MET whenever r2 is at 7 mM^−ls^−1 or higher; record NOT MET when lower.

Compound	Category Label
CNC[C@H](O)[C@@H](O)[C@H](O)[C@H](O)CO.CNC[C@H](O)[C@@H](O)[C@H](O)[C@H](O)CO.O=C([O-])CN(CCN(CC(=O)[O-])CC(=O)O)CCN(CC(=O)[O-])CC(=O)O.[Gd+3]	NOT MET
CCOc1ccc(CN2CCN(CC(=O)[O-])CCN(C(CCC(=O)[O-])C(=O)[O-])CCN(CC(=O)[O-])CC2)cc1.[Gd+3] (centres unmarked)	MET
CCOc1ccc(CC(CN(CCN(CC(=O)[O-])CC(=O)[O-])CC(=O)[O-])N(CC(=O)[O-])CC(=O)[O-])cc1.[Gd+3].[Na+].[Na+] (centres unmarked)	MET
CNC(=O)CN(CCN(CCN(CC(=O)[O-])CC(=O)NC)CC(=O)[O-])CC(=O)[O-].[Gd+3]	NOT MET
